B1: CFHR2 (parent)
chain: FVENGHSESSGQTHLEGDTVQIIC

Variants of: B1
PROCEDURE DETAILS: protein stability index of a GFP-peptide fusion (GPS, HEK-293T) (PSI 1-6); higher = more stable;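 also: lentivirally expressed fusions sorted by FACS into six bins by GFP to DsRed ratio, PSI derived from sequencing read proportions per bin multiplied by bin number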
EXPERIMENTAL PARAMETERS: c terminus: a fixed tail appended
MEASURED METRIC: protein stability index
Response field accepts a number only; no unit should be typed.

Worked cases, answers included:
[[record]]
mutation_string = "E8S"
measured_metric = "protein stability index"
data_value = 2.32

[[record]]
mutation_string = "Q12D"
measured_metric = "protein stability index"
data_value = 3.46

[[record]]
mutation_string = "V20G"
measured_metric = "protein stability index"
data_value = 4


Per the records, this variant ( "T13A" ) has protein stability index equal to 2.54

Per the records, this variant ( "G11C" ) has protein stability index equal to 2.19

Per the records, this variant ( "V20F" ) has protein stability index equal to 2.02

Per the records, this variant ( "T19K" ) has protein stability index equal to 2.82

Per the records, this variant ( "Q21I" ) has protein stability index equal to 1.82

Per the records, this variant ( "E8D" ) has protein stability index equal to 2.75

Per the records, this variant ( "S9V" ) has protein stability index equal to 2.15

Per the records, this variant ( "F1K" ) has protein stability index equal to 4.2
